meta.source: ChEMBL document CHEMBL1201862

# System: OVCAR-8
# Measurement Description: NCI tumour cell line growth inhibition, 48 h
Calls of active or inactive are those of the source. No stated cut-off is given here; in the data, active = GI50 up to about 1.1 µM and inactive = higher.
Outcome Measure: GI50

>  <Molecule>
CC1=CC(=O)C2=C(C)CCC3C(C)C(=O)OC3C12 (stereo unspecified)

>  <GI50>
> 100 µM (inactive)

$$$$
>  <Molecule>
CCOC(C/N=c1/nc(N(C)C)ss1)OCC

>  <GI50>
28.1 µM (inactive)

$$$$
>  <Molecule>
CCN(CC)C(=O)Cn1c(C)cc2ccccc21

>  <GI50>
> 100 µM (inactive)

$$$$
>  <Molecule>
COC(=O)[C@@]12OC[C@]34C([C@@H](O)C1O)[C@@]1(C)CC(=O)C(OC(=O)CC(C)C(F)(F)F)=C(C)C1C[C@H]3OC(=O)[C@H](O)[C@H]42 (stereo partly specified)

>  <GI50>
4.71 µM (inactive)

$$$$
>  <Molecule>
O=C1C2CCCCC2C(=O)N1n1c(Cc2ccc(Cl)cc2)n[nH]c1=O (stereo unspecified)

>  <GI50>
> 100 µM (inactive)

$$$$
>  <Molecule>
Cc1ccc(Cl)c2c(=O)cc(-c3ccccc3)[nH]c12

>  <GI50>
> 100 µM (inactive)

$$$$
>  <Molecule>
COC(=O)C1Cc2c(C)cccc2C1=O (stereo unspecified)

>  <GI50>
> 100 µM (inactive)

$$$$
>  <Molecule>
CCc1ccc(Nc2ccc([N+](=O)[O-])cc2[N+](=O)[O-])cc1

>  <GI50>
97.7 µM (inactive)

$$$$
>  <Molecule>
Cn1c(=O)nc2n(CCO)ccnc-2c1=O

>  <GI50>
> 100 µM (inactive)

$$$$
>  <Molecule>
COc1ccc(C2=NN(c3ccccc3)C[N+](c3ccc(C)cc3)=N2)cc1

>  <GI50>
78.2 µM (inactive)

$$$$

Here is another molecule to look at.
Recorded GI50 for Cn1cnc([N+](=O)[O-])c1Sc1nnc(C(F)(F)F)n1C with OVCAR-8, please?
24.9 µM (inactive)

* * *

# Tested on: RPMI-8226
# Measurement Description: NCI tumour cell line growth inhibition, 48 h
Active and inactive are the calls of the source. Cut-off read from the data, not from the text of the source: active = GI50 up to about 1.1 µM and inactive = higher.
Exercise: state measured GI50 for each of the molecules provided.

Study these solved cases before continuing.
>  <Molecule>
Cn1cnc([N+](=O)[O-])c1Sc1nc2cc(Cl)c(F)cc2[nH]1

>  <Tgt>
RPMI-8226

>  <Meas Value>
7.24 µM (inactive)

$$$$
>  <Molecule>
COC(=NC(C)C)NC(C)C

>  <Tgt>
RPMI-8226

>  <Meas Value>
> 100 µM (inactive)

$$$$
>  <Molecule>
O=C(c1cccs1)N(C(=S)N1CCN(c2ccccn2)CC1)c1ccccc1

>  <Tgt>
RPMI-8226

>  <Meas Value>
> 100 µM (inactive)

$$$$

# batch: return GI50 for each of the 2 molecules below
1. O=C(O)CN(CC(=O)O)C(C(=O)O)c1ccccc1 (stereo not given)
2. C[C@H](CCC(=O)O)[C@H]1CC[C@H]2[C@@H]3[C@@H](O)C[C@@H]4C[C@H](O)CC[C@]4(C)[C@H]3CC[C@]12C

["> 100 µM (inactive)", "38.1 µM (inactive)"]

* * *

# System: SK-MEL-28
# Measurement Description: NCI tumour cell line growth inhibition, 48 h
Active and inactive are the calls of the source. Rule as the data show it: active = GI50 up to about 1.1 µM and inactive = higher.
Exercise: state measured GI50 for each of the molecules provided.

Study these solved cases before continuing.
>  <Molecule>
OCCCC(O)(c1ccccc1)c1ccccc1

>  <GI50>
> 100 µM (inactive)

$$$$
>  <Molecule>
O=C1[C@H](O)[C@@H]2C(O)O[C@H]3[C@@H]2N1C[C@H]3[Si](c1ccccc1)(c1ccccc1)c1ccccc1 (stereo partly drawn)

>  <GI50>
> 100 µM (inactive)

$$$$
>  <Molecule>
CCOC1=C2N=C(C(CC)c3ccccc3F)N=C2C(=O)c2ccccc21 (stereo not drawn)

>  <GI50>
> 100 µM (inactive)

$$$$

# batch: return GI50 for each of the 8 molecules below
1. CCOC(=O)Nc1cc2ccccc2c(/N=N/c2ccccc2)c1O
2. C[C@H](CC[C@@H](O)C(C)(C)O)[C@H]1CC[C@@]2(C)[C@@H]3CC=C4[C@@H](CC[C@H](OC5OC(CO)C(O)C(O)C5O)C4(C)C)[C@]3(C)C(=O)C[C@]12C (stereo partly drawn)
3. N#C[BH2-][n+]1cn(C2CC(O)C(COP(=O)(O)OC3CC(n4c[n+]([BH2-]C#N)c5c(=O)[nH]c(N)nc54)OC3CO)O2)c2nc(N)[nH]c(=O)c21 (stereo not drawn)
4. CC(C)=CCC/C(C)=C/CC/C(C)=C/[C@@H]1[C@@H](CO)[C@]1(C)CC/C=C(\C)CCC=C(C)C
5. CCOC(=O)c1cc(C2CCN(Cc3ccccc3)C2=S)c(C(=O)C=[N+]=[N-])[nH]1 (stereo not drawn)
6. Cc1cc2c3c(nc4ccccc42)C(=O)c2ccccc2-c3n1
7. O=C(c1ccc(Cl)cc1)N(C(=S)N1CCN(c2ccccn2)CC1)c1ccccc1
8. COc1cc(CC2C(=O)OCC2Cc2ccc(OC)c(OC)c2)ccc1O (stereo not drawn)

1: > 100 µM (inactive); 2: 27.7 µM (inactive); 3: > 100 µM (inactive); 4: > 100 µM (inactive); 5: 26 µM (inactive); 6: 14.6 µM (inactive); 7: > 100 µM (inactive); 8: > 100 µM (inactive)

# batch: return GI50 for each of the 7 molecules below
1. C/C(=C\c1ccc(Cl)c(Cl)c1)[N+](=O)[O-]
2. CCOC(=O)C(O)(C(=O)OCC)c1cc(C(C)(C)C)c(O)c(C(C)(C)C)c1
3. C=C(C)[C@@H]1CC[C@]2(C)CC[C@]3(C)[C@H](CC[C@@H]4[C@@]5(C)CC[C@H](O)C(C)(C)[C@@H]5CC[C@]43C)[C@@H]12 [LUPEOL]
4. c1ccc(CN2CCCCC(Sc3ccccc3)CC2)cc1 (stereo not drawn)
5. COc1ccc(C(=CCC(C)C2CCC3[C@@H]4C(OC(C)=O)CC5CC(OC(C)=O)CC[C@]5(C)C4CC(OC(C)=O)[C@]23C)c2ccc(OC)cc2)cc1 (stereo partly drawn)
6. O=C1c2ccccc2-n2c1nc1ccccc1c2=O [TRYPTANTHRIN]
7. N#CC1CCCCCCCCCCC(=O)N(CCCl)C1=O (stereo not drawn)

["2.31 µM (inactive)", "31.8 µM (inactive)", "> 65.2 µM (inactive)", "45.3 µM (inactive)", "83.8 µM (inactive)", "15.8 µM (inactive)", "> 100 µM (inactive)"]

# batch: return GI50 for each of the 7 molecules below
1. Cn1c(=O)nc2n(CCO)ccnc-2c1=O
2. CCCCCCCCCCCCCCCC(=O)Nc1ccn(C2OC(CO)C(O)C2O)c(=O)n1 (stereo not drawn)
3. C[C@@]12[C@H]3CC[C@@H]1[C@H](O)C(=O)N2CC3
4. FC(F)(F)c1ccc(Cc2nc3cc4ccccc4cc3[nH]2)cc1
5. CCOC(=O)C1=C(N2CCCC2)C(=O)C(C(=O)OCC)C1 (stereo not drawn)
6. CC(C)[C@@H]1CC[C@@H](C)C[C@H]1OC(=O)c1c2n(c3ccccc13)C[C@H]1OC(C)(C)O[C@@H]21
7. COc1cc(/C=N/N=C(\N)NO)ccc1O

> 100 µM (inactive)
41.9 µM (inactive)
> 100 µM (inactive)
> 100 µM (inactive)
> 100 µM (inactive)
46.7 µM (inactive)
26 µM (inactive)
